assay: qHTS assay to identify small molecule antagonists of the farnesoid-X-receptor (FXR) signaling pathway - cell viability counter screen (AID 743221); details: FXR-bla HEK293T viability, CellTiter-Glo luminescence, 16 h; series mostly up to 62.6 µM; also: nearly all actives have a fitted effect of over 50% in size
Inconclusive results are not listed. The source made the active and inactive calls. Calls follow the shape of the dose curve; as a rule, active = well fitted cell-killing curve with a large enough effect in the repeat runs (not every such curve was filed as active); inconclusive = weak or mixed curves, or effect the other way; inactive = no such curve, though single readings can be large or run the other way.
Outcome codes: active, inactive

O=C(c1ccccc1)C1CCC1 | inactive
CCCOC(=O)c1c(Cl)c(Cl)c(Cl)c(Cl)c1C(=O)OCCC | inactive
CCOC(=O)Oc1ccc(CCNC(=O)[C@H](CCSC)NC(C)=O)cc1OC(=O)OCC | inactive
O=C(NS(=O)(=O)/C=C/c1ccccc1)c1ccc(F)cc1Cl | inactive
COc1ccc(C2C(=O)c3ccccc3C2=O)cc1 | inactive
ClC1=C(Cl)C1(Cl)Cl | inactive
O=c1[nH]c2cc(C(F)(F)F)c(N3CCOCC3)cc2n(CP(=O)(O)O)c1=O | inactive
CC(C)COC(=O)COc1cc(Cl)c(Cl)cc1Cl | inactive
CS(=O)(=O)c1ccc([C@@H](C[C@H]2CCC(=O)C2)C(=O)Nc2cnccn2)cc1Cl | inactive
CCN(Cc1cccc(S(=O)(=O)O)c1)c1ccc(C(=C2C=CC(=[N+](CC)Cc3cccc(S(=O)(=O)O)c3)C=C2)c2ccccc2S(=O)(=O)[O-])cc1 | active
